Data origin: the supplement of paper PMC9112550

test system: Escherichia coli TOP10; assay: shrunken log2 fold change of peptide-encoding DNA abundance (4.5 h post-induction vs induction); higher = less antimicrobial activity (less host growth inhibition); settings: time post-induction: 4.5 h; library: site-saturation at positions 5, 18, 19, 20
Short version: shrunken log2 fold change at least -0.2 is Yes, less is No.

Ask | Hi, just wondering whether RRIRRRPPRLPRPRPRPCFPPRP shows shrunken log2 fold change of -0.2 or higher.
Reply | Yes

Ask | Hi, just wondering whether RRIRERPPRLPRPRPRPVFSPRP shows shrunken log2 fold change of -0.2 or higher.
Reply | Yes

Ask | Hi, just wondering whether RRIRNRPPRLPRPRPRPYCWPRP shows shrunken log2 fold change of -0.2 or higher.
Reply | No

Ask | Hi, just wondering whether RRIRLRPPRLPRPRPRPSLDPRP shows shrunken log2 fold change of -0.2 or higher.
Reply | Yes

Ask | Hi, just wondering whether RRIRQRPPRLPRPRPRPKGQPRP shows shrunken log2 fold change of -0.2 or higher.
Reply | Yes

Ask | Hi, just wondering whether RRIRRRPPRLPRPRPRPRNDPRP shows shrunken log2 fold change of -0.2 or higher.
Reply | Yes

Ask | Hi, just wondering whether RRIRYRPPRLPRPRPRPITLPRP shows shrunken log2 fold change of -0.2 or higher.
Reply | No

Ask | Hi, just wondering whether RRIRNRPPRLPRPRPRPLWCPRP shows shrunken log2 fold change of -0.2 or higher.
Reply | Yes

Ask | Hi, just wondering whether RRIRVRPPRLPRPRPRPQWLPRP shows shrunken log2 fold change of -0.2 or higher.
Reply | Yes

Ask | Hi, just wondering whether RRIRYRPPRLPRPRPRPCNMPRP shows shrunken log2 fold change of -0.2 or higher.
Reply | No

Ask | Hi, just wondering whether RRIRCRPPRLPRPRPRPNCIPRP shows shrunken log2 fold change of -0.2 or higher.
Reply | No

Ask | Hi, just wondering whether RRIRRRPPRLPRPRPRPAVTPRP shows shrunken log2 fold change of -0.2 or higher.
Reply | Yes

Ask | Hi, just wondering whether RRIRPRPPRLPRPRPRPADYPRP shows shrunken log2 fold change of -0.2 or higher.
Reply | Yes

###

Please respond with reported shrunken log2 fold change for every item in the list.
test system: Escherichia coli TOP10; test: shrunken log2 fold change of peptide-encoding DNA abundance (4.5 h post-induction vs induction); higher = less antimicrobial activity (less host growth inhibition); conditions: time post-induction: 4.5 h; library: site-saturation at positions 5, 18, 19, 20;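 note: peptides expressed intracellularly from a pBAD plasmid library in pooled LB shake-flask culture, induced with 0.3% L-arabinose, DNA abundance read by NGS, three biological replicates, DESeq2 with apeglm shrinkage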
Lab note: record just the number, no unit beside it.

shrunken log2 fold change measured on RRIRMRPPRLPRPRPRPANIPRP = -0.0889

shrunken log2 fold change measured on RRIRKRPPRLPRPRPRPMQYPRP = -0.0135

shrunken log2 fold change measured on RRIRERPPRLPRPRPRPKGYPRP = 0.016

shrunken log2 fold change measured on RRIRLRPPRLPRPRPRPSHRPRP = -0.0457

shrunken log2 fold change measured on RRIRRRPPRLPRPRPRPRTYPRP = -0.213

shrunken log2 fold change measured on RRIRQRPPRLPRPRPRPEVWPRP = 0.552

shrunken log2 fold change measured on RRIRIRPPRLPRPRPRPDNQPRP = -1.03

shrunken log2 fold change measured on RRIRARPPRLPRPRPRPRIYPRP = -0.0488

shrunken log2 fold change measured on RRIRERPPRLPRPRPRPAMNPRP = -0.28
